Collected pIC50 values appear next to each entry.
Test system: HCT116 cells
assayProtocol: Inhibition of proliferation of the human colon tumor line HCT116 ([14C]-thymidine incorporation)
Format: cell-based
conditionInfo: Homo sapiens, HCT-116, 48 h, 48 hours at 37° C., read-out: Inhibition of HCT116 proliferation IC 50 (μm)
pIC50: −log10 of the molar value. Structures can show the parent of a compound that is named as a salt.

compound	assayTarget	pIC50
Cc1cc(C(=O)N2CCN(c3ccc(Cl)cc3)CC2)n(-c2cccc(Cl)c2)n1	HCT116 cells	6.46
Cc1cc(C(=O)N2CCN(c3cccc(C)c3C)CC2)n(-c2ccccc2)n1	HCT116 cells	6.31
COc1cc(OC)cc(N2CCN(C(=O)c3cccn3-c3ccccc3)CC2)c1 [Example E51, hydrochloride]	HCT116 cells	5.64
COc1cc(OC)cc(N2CCN(C(=O)c3cc(N4CCOCC4)nn3-c3ccccc3)CC2)c1	HCT116 cells	7.13
Cc1cc(C(=O)N2CCN(c3ccc4c(c3)OCCO4)CC2)n(-c2ccccc2)n1	HCT116 cells	6.45
Cc1cc(C(=O)N2CCN(c3cccc(C)c3C)CC2)n(-c2ccccc2F)n1	HCT116 cells	7.18
COc1cc(OC)cc(N2CCN(C(=O)c3cc(-c4ccsc4)nn3-c3ccccc3)CC2)c1	HCT116 cells	6.74
CCc1ccccc1N1CCN(C(=O)c2cc(C)nn2-c2cccc(F)c2)CC1	HCT116 cells	6.79
Cc1cc(C(=O)N2CCN(c3cccc(Cl)c3)CC2)n(-c2c(F)c(F)cc(F)c2F)n1	HCT116 cells	5.83

====

assayTarget: tubulin (Sus scrofa, UniProt P02550+P02554)
Construct: Tubulin is purified from pig brain according to published methods
Sequence (P02550 whole entry): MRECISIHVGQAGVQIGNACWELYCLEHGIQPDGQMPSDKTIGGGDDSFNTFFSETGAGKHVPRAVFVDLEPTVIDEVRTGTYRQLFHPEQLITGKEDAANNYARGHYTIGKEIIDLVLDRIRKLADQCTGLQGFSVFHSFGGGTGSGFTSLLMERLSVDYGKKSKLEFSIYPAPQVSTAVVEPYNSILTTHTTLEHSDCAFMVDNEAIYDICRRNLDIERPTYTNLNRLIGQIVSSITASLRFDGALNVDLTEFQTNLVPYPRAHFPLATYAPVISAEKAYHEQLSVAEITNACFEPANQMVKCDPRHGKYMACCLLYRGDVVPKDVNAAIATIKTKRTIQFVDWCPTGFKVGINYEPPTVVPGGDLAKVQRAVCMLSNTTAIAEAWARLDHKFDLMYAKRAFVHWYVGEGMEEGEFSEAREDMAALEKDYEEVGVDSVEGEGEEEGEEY
Sequence (P02554 whole entry): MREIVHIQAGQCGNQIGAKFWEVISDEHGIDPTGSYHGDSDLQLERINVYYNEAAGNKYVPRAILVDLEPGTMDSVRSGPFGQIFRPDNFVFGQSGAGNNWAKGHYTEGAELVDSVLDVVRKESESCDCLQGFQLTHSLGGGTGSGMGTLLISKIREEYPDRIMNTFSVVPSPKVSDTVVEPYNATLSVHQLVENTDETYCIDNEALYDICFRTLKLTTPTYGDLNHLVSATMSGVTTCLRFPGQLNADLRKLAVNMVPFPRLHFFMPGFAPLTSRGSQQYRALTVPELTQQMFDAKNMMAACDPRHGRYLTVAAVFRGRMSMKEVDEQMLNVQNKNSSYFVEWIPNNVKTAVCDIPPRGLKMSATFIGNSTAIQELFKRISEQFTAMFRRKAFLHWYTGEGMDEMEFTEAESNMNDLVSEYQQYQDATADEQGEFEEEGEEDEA
assayProtocol: Evaluation of the inhibition of tubulin polymerization (turbidimetry)
conditionInfo: tubulin 10 μm (1 mg/ml), 37° C., turbidity at 350 nm; concentration that inhibits the rate of polymerization by 50%; read-out: Inhibition of tubulin polymerization IC 50 (μm)
Please use 1 for IC50 under 2000 nM and -1 for everything else, ties included.

compound	labelClass
Cc1cc(C(=O)N2CCN(c3cccc(Cl)c3)CC2)n(-c2ccccc2C)n1	1
Cc1cc(C(=O)N2CCN(c3cccc4ccccc34)CC2)n(-c2cccc(Cl)c2)n1	-1
Cc1cc(C(=O)N2CCN(c3cccc(Cl)c3)CC2)n(-c2c(F)c(F)cc(F)c2F)n1	-1
COc1cc(OC)cc(N2CCN(C(=O)c3cc(C(C)C)nn3-c3ccccc3)CC2)c1	-1
COc1cccc(N2CCN(C(=O)c3cc(C)nn3-c3cccc(F)c3)CC2)c1	1
Cc1cc(C(=O)N2CCN(c3cccc(OC(F)(F)F)c3)CC2)n(-c2ccccc2)n1	1
COc1cc(OC)cc(N2CCN(C(=O)c3cc(N4CCC(O)C4)nn3-c3ccccc3)CC2)c1 (centres unmarked)	-1
Cc1cc(C(=O)N2CCN(c3cccc(N)c3)CC2)n(-c2ccccc2)n1	-1

====

Collected IC50 values appear next to each entry.
assayTarget: tubulin (Sus scrofa, UniProt P02550+P02554)
Construct: Tubulin is purified from pig brain according to published methods
assayProtocol: Evaluation of the inhibition of tubulin polymerization (turbidimetry)
conditionInfo: tubulin 10 μm (1 mg/ml), 37° C., turbidity at 350 nm; concentration that inhibits the rate of polymerization by 50%; read-out: Inhibition of tubulin polymerization IC 50 (μm)
measurementLabel: IC50

smi	assayTarget	measurementLabel	result
COc1cc(OC)cc(N2CCN(C(=O)c3cc(/C=N/O)nn3-c3ccccc3)CC2)c1	tubulin (Sus scrofa, UniProt P02550+P02554)	IC50	900 nM
Cc1cc(C(=O)N2CCN(c3cc(F)c(F)c(F)c3)CC2)n(-c2ccccc2)n1	tubulin (Sus scrofa, UniProt P02550+P02554)	IC50	2330 nM
CSc1ccccc1N1CCN(C(=O)c2cc(C)nn2-c2ccccc2)CC1	tubulin (Sus scrofa, UniProt P02550+P02554)	IC50	3000 nM
COC(=O)CCC(=O)Nc1cccc(N2CCN(C(=O)c3cc(C)nn3-c3ccccc3)CC2)c1	tubulin (Sus scrofa, UniProt P02550+P02554)	IC50	20000 nM
